Exercise: state measured pIC50 for each of the compounds provided.
test system: HepG2; assay: Antiproliferative activity against human HepG2 cells after 72 hrs by MTT assay; format: functional, cell-based; conditions: HepG2, 72 h
The quantity pIC50 is defined as the negative base-10 logarithm of the molar concentration.

Provide one value: measured pIC50 of C=C(C)[C@@H]1CC[C@]2(C(=O)N[C@@H](CCSC)C(=O)N[C@@H](CCSC)C(=O)OC)CC[C@]3(C)[C@H](CC[C@@H]4[C@@]5(C)CC[C@H](O)[C@@](C)(CO)[C@@H]5CC[C@]43C)[C@@H]12
4.64

Provide one value: measured pIC50 of C=CCN(CC=C)C(=O)[C@]12CC[C@@H](C(=C)C)[C@@H]1[C@H]1CC[C@@H]3[C@@]4(C)CC[C@H](OC(C)=O)[C@@](C)(COC(C)=O)[C@@H]4CC[C@@]3(C)[C@]1(C)CC2
5.08

Provide one value: measured pIC50 of C=C(C)[C@@H]1CC[C@]2(C(=O)N3CCCCC3)CC[C@]3(C)[C@H](CC[C@@H]4[C@@]5(C)CC[C@H](OC(C)=O)[C@@](C)(COC(C)=O)[C@@H]5CC[C@]43C)[C@@H]12
4.18

Provide one value: measured pIC50 of C=C(CO)[C@@H]1CC[C@]2(C(=O)N3CCC[C@H]3C(=O)OC)CC[C@]3(C)[C@H](CC[C@@H]4[C@@]5(C)CC[C@H](OC(C)=O)[C@@](C)(COC(C)=O)[C@@H]5CC[C@]43C)[C@@H]12
5.00

Provide one value: measured pIC50 of C=C(C)[C@@H]1CC[C@]2(C(=O)OC/C=C/CO)CC[C@]3(C)[C@H](CC[C@@H]4[C@@]5(C)CC[C@H](OC(C)=O)[C@@](C)(COC(C)=O)[C@@H]5CC[C@]43C)[C@@H]12
5.13

Provide one value: measured pIC50 of C=C(C)[C@@H]1CC[C@]2(C(=O)N3CCC[C@H]3C(=O)N[C@@H](CCSC)C(=O)OC)CC[C@]3(C)[C@H](CC[C@@H]4[C@@]5(C)CC[C@H](O)[C@@](C)(CO)[C@@H]5CC[C@]43C)[C@@H]12
4.39

Provide one value: measured pIC50 of C=C(CO)[C@@H]1CC[C@]2(C(=O)OC(C)(C)C)CC[C@]3(C)[C@H](CC[C@@H]4[C@@]5(C)CC[C@H](OC(C)=O)[C@@](C)(COC(C)=O)[C@@H]5CC[C@]43C)[C@@H]12
4.80

Provide one value: measured pIC50 of C=C(CO)[C@@H]1CC[C@]2(C(=O)OCCC(C)C)CC[C@]3(C)[C@H](CC[C@@H]4[C@@]5(C)CC[C@H](O)[C@@](C)(CO)[C@@H]5CC[C@]43C)[C@@H]12
4.46

Provide one value: measured pIC50 of C=C(C)[C@@H]1CC[C@]2(C(=O)N3CCCCC3)CC[C@]3(C)[C@H](CC[C@@H]4[C@@]5(C)CC[C@H](O)[C@@](C)(CO)[C@@H]5CC[C@]43C)[C@@H]12
4.16

Provide one value: measured pIC50 of C=C(C)[C@@H]1CC[C@]2(C(=O)N3CCC(N4CCCCC4)CC3)CC[C@]3(C)[C@H](CC[C@@H]4[C@@]5(C)CC[C@H](O)[C@@](C)(CO)[C@@H]5CC[C@]43C)[C@@H]12
4.90

Provide one value: measured pIC50 of C=C(C)[C@@H]1CC[C@]2(C(=O)N3CCC[C@H]3C(=O)N[C@@H](CCSC)C(=O)O)CC[C@]3(C)[C@H](CC[C@@H]4[C@@]5(C)CC[C@H](O)[C@@](C)(CO)[C@@H]5CC[C@]43C)[C@@H]12
4.04

Provide one value: measured pIC50 of C=C(C)[C@@H]1CC[C@]2(C(=O)NCC(=O)N[C@@H](Cc3c[nH]c4ccccc34)C(=O)OC)CC[C@]3(C)[C@H](CC[C@@H]4[C@@]5(C)CC[C@H](O)[C@@](C)(CO)[C@@H]5CC[C@]43C)[C@@H]12
4.33

Provide one value: measured pIC50 of C=C(C)[C@@H]1CC[C@]2(C(=O)N3CCNCC3)CC[C@]3(C)[C@H](CC[C@@H]4[C@@]5(C)CC[C@H](OC(C)=O)[C@@](C)(COC(C)=O)[C@@H]5CC[C@]43C)[C@@H]12
4.75

Provide one value: measured pIC50 of C=C(C)[C@@H]1CC[C@]2(C(=O)N3CCOCC3)CC[C@]3(C)[C@H](CC[C@@H]4[C@@]5(C)CC[C@H](OC(C)=O)[C@@](C)(COC(C)=O)[C@@H]5CC[C@]43C)[C@@H]12
5.01

Provide one value: measured pIC50 of C=C(CO)[C@@H]1CC[C@]2(C(=O)OC(C)C)CC[C@]3(C)[C@H](CC[C@@H]4[C@@]5(C)CC[C@H](OC(C)=O)[C@@](C)(COC(C)=O)[C@@H]5CC[C@]43C)[C@@H]12
4.97

Provide one value: measured pIC50 of C=C(C)[C@@H]1CC[C@]2(C(=O)NCCCCn3nnc(-c4ccccn4)n3)CC[C@]3(C)[C@H](CC[C@@H]4[C@@]5(C)CC[C@H](O)[C@@](C)(CO)[C@@H]5CC[C@]43C)[C@@H]12
4.32

Provide one value: measured pIC50 of C=C(C)[C@@H]1CC[C@]2(C(=O)O)CC[C@]3(C)[C@H](CC[C@@H]4[C@@]5(C)CC[C@H](O)[C@@](C)(CO)[C@@H]5CC[C@]43C)[C@@H]12
4.38
